Sourced from paper PMC8259865

target: EGFR (Homo sapiens); assay: In vitro kinase inhibition assay, EGFR (Abcam Human In cell ELISA Kit)
Sequence (P00533 25-1210): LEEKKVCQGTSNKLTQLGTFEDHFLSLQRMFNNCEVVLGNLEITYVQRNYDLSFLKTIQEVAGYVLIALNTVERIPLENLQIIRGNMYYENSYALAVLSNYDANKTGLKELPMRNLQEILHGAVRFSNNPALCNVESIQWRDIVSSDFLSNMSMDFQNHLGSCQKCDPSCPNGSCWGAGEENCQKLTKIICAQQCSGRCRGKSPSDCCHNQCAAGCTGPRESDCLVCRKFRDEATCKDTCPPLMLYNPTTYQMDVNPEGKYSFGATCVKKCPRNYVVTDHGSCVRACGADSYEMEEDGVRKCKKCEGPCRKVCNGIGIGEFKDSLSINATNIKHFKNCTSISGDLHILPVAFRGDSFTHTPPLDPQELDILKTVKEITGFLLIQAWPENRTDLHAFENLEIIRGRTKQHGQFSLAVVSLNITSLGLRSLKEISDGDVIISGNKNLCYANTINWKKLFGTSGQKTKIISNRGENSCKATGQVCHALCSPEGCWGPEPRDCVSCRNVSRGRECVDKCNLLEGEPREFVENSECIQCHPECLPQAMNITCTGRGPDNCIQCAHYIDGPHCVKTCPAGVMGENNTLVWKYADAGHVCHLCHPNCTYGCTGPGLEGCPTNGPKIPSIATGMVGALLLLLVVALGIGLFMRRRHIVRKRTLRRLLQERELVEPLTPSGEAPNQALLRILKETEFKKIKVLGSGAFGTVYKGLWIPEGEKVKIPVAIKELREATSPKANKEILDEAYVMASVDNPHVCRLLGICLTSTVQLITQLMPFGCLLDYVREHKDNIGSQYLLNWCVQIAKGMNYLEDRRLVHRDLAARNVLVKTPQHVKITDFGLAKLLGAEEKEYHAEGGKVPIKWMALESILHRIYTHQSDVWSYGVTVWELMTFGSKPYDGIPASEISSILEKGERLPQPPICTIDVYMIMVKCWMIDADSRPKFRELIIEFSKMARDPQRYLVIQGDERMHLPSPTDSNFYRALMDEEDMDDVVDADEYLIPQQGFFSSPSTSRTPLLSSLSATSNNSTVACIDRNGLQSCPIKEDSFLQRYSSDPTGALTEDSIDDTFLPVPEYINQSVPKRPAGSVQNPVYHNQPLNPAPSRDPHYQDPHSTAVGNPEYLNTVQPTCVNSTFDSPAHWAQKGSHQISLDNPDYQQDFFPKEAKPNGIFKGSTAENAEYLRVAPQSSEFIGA
pIC50: −log10 of the molar value.
REPORTED PROPERTY: pIC50

compound="Cc1ccc(S(=O)(=O)c2ccc(C3C(C(=O)c4ccccc4)=C(N)NC4=C3C(=O)CC(C)(C)C4)cc2)cc1 (centres unmarked) [Compound 4j]" assayed_target="EGFR (Homo sapiens)" meas_value=10.15
compound="CCOC(=O)C1=C(C(F)(F)F)NC2=C(C(=O)CC(C)(C)C2)C1c1ccc(S(=O)(=O)c2ccccc2)cc1 (centres unmarked) [Compound 4b]" assayed_target="EGFR (Homo sapiens)" meas_value=9.96
